All figures here come from patent US20240173419A1.

target: CDK2 (Homo sapiens, UniProt P24941); construct: endogenous in cells; host or cells: MKN1 cells; test: CDK2 degradation in MKN1 cells (AlphaLISA); assay type: cell-based; conditions: 14 h incubation, read-out: CDK2 degradation 14 h: Mean external-Abs DC50
VALUE_TYPE: DC50

Would you kindly share the measured DC50 for Cc1cc(S(=O)(=O)NC2CCC(CN3CCN(c4cccc(NC5CCC(=O)NC5=O)c4)CC3)CC2)ccc1Nc1ncc(C(F)(F)F)c(N2CCCC(C)(O)C2)n1 (stereo not shown) [I-1118] ?
< 100 nM

Would you kindly share the measured DC50 for Cc1cc(S(=O)(=O)NC2CC(N3CCN(CC4CCN(c5ccc(C6CCC(=O)NC6=O)c(Cl)c5)CC4)CC3)C2)ccc1Nc1ncc(C(F)(F)F)c(N2CCCC(C)(O)C2)n1 (stereo not shown) [I-714] ?
< 100 nM

Would you kindly share the measured DC50 for Cc1cc(S(=O)(=O)NCCOCCOCCOCCOCCCc2ccc3c(c2)n(C)c(=O)n3C2CCC(=O)NC2=O)ccc1Nc1ncc2c(n1)N(C1CCCC1)C(=O)C21CC1 (stereo not shown) ?
< 100 nM

Would you kindly share the measured DC50 for CC1(O)CCCN(c2nc(Nc3ccc(S(=O)(=O)NC4CCC(CN5CCN(c6ccc(C7CCC(=O)NC7=O)c(F)c6)CC5)CC4)cc3OC(F)F)ncc2C(F)(F)F)C1 (stereo not shown) ?
100 to 500 nM

Would you kindly share the measured DC50 for Cc1cc(S(=O)(=O)N2CCC(CN(C)C3CCN(c4cccc5c4n(C)c(=O)n5C4CCC(=O)NC4=O)CC3F)CC2)ccc1Nc1ncc2cc(Cl)c(=O)n(C3CCCC3)c2n1 (stereo not shown) ?
< 100 nM

Would you kindly share the measured DC50 for Cc1cc(S(=O)(=O)N2CCC(OCCCc3cccc4c3n(C)c(=O)n4C3CCC(=O)NC3=O)CC2)ccc1Nc1ncc2ccc(=O)n(C3CCCC3)c2n1 (stereo not shown) ?
> 1000 nM

Would you kindly share the measured DC50 for CC1(O)CCCN(c2nc(Nc3ccc(S(=O)(=O)NC4CCC(CN5CCN(c6ccc(C7CCC(=O)NC7=O)cc6F)CC5)CC4)cc3C(F)F)ncc2C(F)(F)F)C1 (stereo not shown) ?
< 100 nM

Would you kindly share the measured DC50 for Cc1cc(S(=O)(=O)C2CC3(CCN(CCN4CCN(c5ccc6c(c5F)n(C)c(=O)n6C5CCC(=O)NC5=O)CC4)CC3)C2)ccc1Nc1ncc2cc(Cl)c(=O)n(C3CCCC3)c2n1 (stereo not shown) ?
< 100 nM

Would you kindly share the measured DC50 for Cc1cc(S(=O)(=O)NC(C)COC2CCC(CN3CCN(c4ccc5c(c4F)n(C)c(=O)n5C4CCC(=O)NC4=O)CC3)CC2)ccc1Nc1ncc(C(F)(F)F)c(N2CCC(C(C)(C)O)C2)n1 (stereo not shown) [I-857] ?
< 100 nM

Would you kindly share the measured DC50 for Cc1cc(S(=O)(=O)NCCCC2CCN(c3ccc(N4CCC(=O)NC4=O)cc3)CC2)ccc1Nc1ncc2cc(Cl)c(=O)n(C3CCCC3)c2n1 ?
> 1000 nM

Would you kindly share the measured DC50 for Cc1cc(S(=O)(=O)C2CCC(N3CCC(CN(C)c4cccc5c4n(C)c(=O)n5C4CCC(=O)NC4=O)CC3)CC2)ccc1Nc1ncc2cc(Cl)c(=O)n(C3CCCC3)c2n1 (stereo not shown) ?
< 100 nM

Would you kindly share the measured DC50 for Cc1cc(S(=O)(=O)NC2CCC(CN3CCN(c4cc(C)c(C5CCC(=O)NC5=O)cc4F)CC3)CC2)ccc1Nc1ncc(C(F)(F)F)c(N2CCCC(C)(O)C2)n1 (stereo not shown) ?
< 100 nM

Would you kindly share the measured DC50 for Cc1cc(S(=O)(=O)NC23CCC(CN4CCN(c5ccc(C6CCC(=O)NC6=O)cc5)CC4)(CC2)CC3)ccc1Nc1ncc(C(F)(F)F)c(N2CCC[C@](C)(O)C2)n1 (stereo partly shown) ?
< 100 nM

Would you kindly share the measured DC50 for Cc1cc(S(=O)(=O)C2CC3(CCN(CC4CCN(c5ccc6c(oc(=O)n6C6CCC(=O)NC6=O)c5F)CC4)CC3)C2)ccc1Nc1ncc2cc(Cl)c(=O)n(C3CCCC3)c2n1 (stereo not shown) ?
< 100 nM

Would you kindly share the measured DC50 for Cc1cc(S(=O)(=O)NC2CC(N3CCN(CC4CCN(c5cc(NC6CCC(=O)NC6=O)ccc5Cl)CC4)CC3)C2)ccc1Nc1ncc(C(F)(F)F)c(N2CCCC(C)(O)C2)n1 (stereo not shown) ?
< 100 nM

Would you kindly share the measured DC50 for Cc1cc(S(=O)(=O)C2CC3(CCN(CC4CCN(c5cccc6c5n(C)c(=O)n6C5CCC(=O)NC5=O)CC4)CC3)C2)ccc1Nc1ncc2cc(Cl)c(=O)n(C3CCCC34CC4)c2n1 (stereo not shown) ?
< 100 nM

Would you kindly share the measured DC50 for Cc1cc(S(=O)(=O)N2CCC(CN(C)C3CCN(c4cccc5c4n(C)c(=O)n5C4CCC(=O)NC4=O)CC3)CC2)ccc1Nc1ncc(C(F)(F)F)c(-c2cnn(C)c2)n1 (stereo not shown) ?
< 100 nM

Would you kindly share the measured DC50 for Cc1cc(S(=O)(=O)N2CCC(OCC#Cc3cccc4c3n(C)c(=O)n4C3CCC(=O)NC3=O)CC2)ccc1Nc1ncc2ccc(=O)n(C3CCCC3)c2n1 (stereo not shown) ?
> 1000 nM

Would you kindly share the measured DC50 for Cc1cc(S(=O)(=O)NC2CCC(CN3CCN(c4cc(Cl)c(C5CCC(=O)NC5=O)cc4F)CC3)CC2)ccc1Nc1ncc(C(F)(F)F)c(N2CCCC(C)(O)C2)n1 (stereo not shown) ?
< 100 nM

Would you kindly share the measured DC50 for Cc1cc(S(=O)(=O)C2CCN(CCN3CCN(c4cccc5c4n(C)c(=O)n5C4CCC(=O)NC4=O)CC3)CC2)ccc1Nc1ncc2cc(Cl)c(=O)n(C(C)C)c2n1 (stereo not shown) ?
< 100 nM

Would you kindly share the measured DC50 for Cc1cc(S(=O)(=O)NC2CC(N3CCN(CC4CCN(c5ccc6c(c5F)n(C)c(=O)n6C5CCC(=O)NC5=O)CC4)CC3)C2)ccc1Nc1ncc(C(F)(F)F)c(N2CCCC(C)(O)C2)n1 (stereo not shown) [I-831] ?
< 100 nM

Would you kindly share the measured DC50 for Cc1cc(S(=O)(=O)NC2CCC(CN3CCN(c4ccc(NC5CCC(=O)NC5=O)cc4F)CC3)CC2)ccc1Nc1ncc(C(F)(F)F)c(N2CCCC(C)(O)C2)n1 (stereo not shown) ?
< 100 nM
